Numbers sourced from paper PMC5529524.

# assayed target: adenosine kinase (recombinant human ADK, rhADK) (Homo sapiens, UniProt P55263)
# Sequence (P55263 2-362): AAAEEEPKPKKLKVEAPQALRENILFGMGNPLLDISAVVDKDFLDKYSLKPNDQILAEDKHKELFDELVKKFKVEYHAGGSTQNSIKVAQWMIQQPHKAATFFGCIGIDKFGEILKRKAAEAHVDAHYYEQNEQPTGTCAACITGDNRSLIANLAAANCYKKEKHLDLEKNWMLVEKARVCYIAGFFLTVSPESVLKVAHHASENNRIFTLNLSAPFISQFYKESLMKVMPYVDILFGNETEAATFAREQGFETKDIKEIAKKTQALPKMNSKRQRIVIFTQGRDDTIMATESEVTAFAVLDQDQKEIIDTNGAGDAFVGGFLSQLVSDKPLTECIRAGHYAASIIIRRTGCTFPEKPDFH
# assay protocol: in vitro rhADK enzyme assay, HPLC of 2-oxo-AMP product (IC50 […] with Ado as substrate)
assay readout: pIC50
pIC50 is a log-scale quantity: -log10 of the concentration expressed in molar.

### Prompt Kindly indicate its recorded pIC50. Item: C[S+]([O-])c1ccc(-c2nc(-c3ccncc3)c(-c3ccc(F)cc3)[nH]2)cc1 (stereo not shown)
### Response 5.07
